- TARGET_DESC: Orexin/Hypocretin receptor type 1 (Homo sapiens, UniProt O43613)
- Sequence (O43613 whole entry): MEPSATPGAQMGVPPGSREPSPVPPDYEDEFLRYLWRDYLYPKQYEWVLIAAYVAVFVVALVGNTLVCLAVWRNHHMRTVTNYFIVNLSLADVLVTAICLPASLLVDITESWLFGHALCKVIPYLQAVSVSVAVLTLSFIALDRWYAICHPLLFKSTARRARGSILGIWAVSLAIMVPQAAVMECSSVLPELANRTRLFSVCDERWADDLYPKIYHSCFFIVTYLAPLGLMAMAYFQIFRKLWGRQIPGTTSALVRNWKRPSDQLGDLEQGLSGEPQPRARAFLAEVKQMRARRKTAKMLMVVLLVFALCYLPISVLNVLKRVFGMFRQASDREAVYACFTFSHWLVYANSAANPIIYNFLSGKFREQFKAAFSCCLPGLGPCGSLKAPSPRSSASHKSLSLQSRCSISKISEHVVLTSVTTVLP
pKi: −log10 of the molar value.
MEASURED_PROPERTY: pKi

1. Cc1ccc(-c2ncccn2)c(C(=O)N2C[C@@H]3C[C@@H]3C[C@H]2CNc2nnc(C(F)(F)F)s2)n1 :: 7.10

====

Collected pIC50 values appear next to each entry.
- PROTOCOL_DESCRIPTION: Displacement of [125I]-Ang II from rabbit uterine membrane AT2R incubated for 3 hrs in presence of DuP 753
- Format: cell membranes, Oryctolagus cuniculus, Uterus
pIC50: −log10 of the molar value.
MEASURED_PROPERTY: pIC50

1. COc1ccc2c(c1OCc1ccccc1)C[C@@H](C(=O)O)N(C(=O)C(c1ccccc1)c1ccccc1)C2 [OLODANRIGAN] :: 9.24
2. Cc1cc(Cn2cnc3c2C[C@@H](C(=O)O)N(C(=O)C(c2ccccc2)c2ccccc2)C3)ccc1N(C)C :: 8.16

====

- PROTOCOL_DESCRIPTION: Displacement of [125I]-Ang II from rat liver membrane AT1R incubated for 3 hrs
- Assay type: cell membranes
pIC50: −log10 of the molar value.
MEASURED_PROPERTY: pIC50

1) COc1ccc2c(c1OCc1ccccc1)C[C@@H](C(=O)O)N(C(=O)C(c1ccccc1)c1ccccc1)C2 :: < 5.00
2) Cc1cc(Cn2cnc3c2C[C@@H](C(=O)O)N(C(=O)C(c2ccccc2)c2ccccc2)C3)ccc1N(C)C :: < 5.00
